DETAILS: Ebola virus entry assay, green fluorescence channel
Results with a measured potency or affinity are listed apart.
efficacy strictly less than -30% = class 1. Otherwise class 0.

> print(dat)
                      compound  class.label
1  CCCCCCCCCCCCCCCC[n+]1ccccc1      class 1

Now look at this entry.
Task item: Dear reviewer, please state whether CCCC(C)C1(CC)C(=O)N=C(S)NC1=O (stereo unspecified) has efficacy strictly beneath -30%.
Reply: class 0

====

Test system: N140
METHOD: qHTS profiling for inhibitors of Plasmodium falciparum proliferation (AID 504749);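 further: 0% = DMSO vehicle and full inhibition = artemisinin control; nearly all actives have a fitted effect of over 60% in size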
DETAILS: P. falciparum in erythrocytes, SYBR Green DNA, 72 h; series mostly up to 28.7 µM
Inconclusive results are not listed. Activity calls are given as the source filed them. Calls come from the whole dose curve; as a rule, active = well fitted inhibition curve with a large enough effect; inconclusive = small, poorly fitted or top-dose-only effect; inactive = flat fitted curve, though single readings scatter.
In this exercise, the only acceptable responses are active, inactive

Task item: Hi, do you know how "NC(=O)OCCCc1ccccc1" came out in this test?
Reply: inactive

Task item: So what was the verdict on "O=C(O)c1nn(Cc2ccc(Cl)cc2Cl)c2ccccc12" in this test?
Reply: inactive

Task item: # fetch the recorded call for "NCc1cccnc1" here
Reply: inactive

Task item: What is the recorded call for this compound in the test? "OC(c1ccccc1)(c1ccccc1)C1CCNCC1"
Reply: inactive

Task item: For "CC(C)(C)OC(=O)c1ncn2c1[C@@H]1CCCN1C(=O)c1c(Br)cccc1-2" , which call appears in the assay record?
Reply: inactive

Task item: GET /call?item= "CC(C)[N+](C)(CCC(C(N)=O)(c1ccccc1)c1ccccc1)C(C)C" returns the recorded outcome of this test.
Reply: inactive

====

DETAILS: Ebola virus entry assay, ratio channel
Active and inactive are the calls of the source. The rule behind the calls is not given here.
Write down the outcome that applies. Available outcomes: 1 for active, 0 for inactive

Examples with answers:
> print(dat)
                                   compound  class.label
1     CC(=O)OCC(=O)NCCCOc1cccc(CN2CCCCC2)c1            0
2  CCNC(=O)N1CCN(CCCC(c2ccc(F)cc2)c2ccc(F)cc2)CC1            1
3  COC(=O)[C@H]1[C@H]2C[C@@H]3c4[nH]c5cc(OC)ccc5c4CCN3C[C@H]2C[C@@H](OC(=O)COc2ccc(OC)cc2)[C@@H]1OC            1
4  COc1ccc2c(c1)c(CC(=O)O)c(C)n2C(=O)c1ccc(Cl)cc1            0
5  O=C1N(c2ccccc2)c2ccccc2C1(Cc1ccncc1)Cc1ccncc1            0

Task item: What did this assay record as the result for "C[C@]12CC[C@H]3[C@@H](CCC4=CC(=O)CC[C@@H]43)[C@@H]1CC[C@@H]2O" ?
Reply: 0

Task item: Which outcome was entered for the compound CN(C)CCC(c1ccccc1)c1ccccn1 (stereo not given) in this test?
Reply: 0

Task item: Give the logged outcome of this assay for the following compound: "c1ccc(C(O[C@H]2CCCN(CCc3ccc4c(c3)OCO4)C2)c2ccccc2)cc1"
Reply: 1

Task item: Which outcome was entered for the compound "NC(N)=NN=C(/C=C/c1ccc([N+](=O)[O-])o1)/C=C/c1ccc([N+](=O)[O-])o1" in this test?
Reply: 1

Task item: Hello, I am checking results. What call was entered for CCCCCOc1ccc(C2SC(=O)NC2=O)cc1OCC (stereo not given) ?
Reply: 0

====

I'd appreciate it if you could supply max response values for the items below.
METHOD: qHTS Assay for Identifying Gametocytocidal Compounds (AID 743244);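 further: on the % scale 0 is the no-effect control and ±100 the full control effect; actives lower the fluorescent signal which means gametocytes are killed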
DETAILS: P. falciparum 3D7 stage III-V gametocytes, alamarBlue, 72 h; hits give low values
Results filed as inconclusive are left out.
Answers are plain numbers, in %.

// input: 5 molecules below; output: max response for each
1. Cc1c(C)c2c(c(C)c1OC(=O)CCC(=O)OCCO)CC[C@@](C)(CCC[C@H](C)CCC[C@H](C)CCCC(C)C)O2
2. CC(C)[N+](C)(CCC(C(N)=O)(c1ccccc1)c1ccccc1)C(C)C
3. Cc1nnc2n1-c1sc(CCc3ccc(CC(C)C)cc3)cc1C(c1ccccc1Cl)=NC2C (stereo not given)
4. COP(=S)(OC)Oc1ccc(Sc2ccc(OP(=S)(OC)OC)cc2)cc1
5. C[N+](C)(C)CCOC(=O)C(O)(c1ccccc1)c1ccccc1

Reply:
-0.873
0.0209
-7.02
1.05
-1.74
